test system: SF-539; test: NCI tumour cell line growth inhibition, 48 h
Active and inactive are the calls of the source. No stated cut-off is given here; in the data, active = GI50 up to about 1.1 µM and inactive = higher.
Please provide measured GI50 for the entries that follow.

Note GI50 for the compound shown: NC(CC(=O)OCc1ccccc1)C(=O)OCc1ccccc1 (centres undefined)
> 100 µM (inactive)

Note GI50 for the compound shown: CNS(=O)(=O)NN(C)S(=O)(=O)c1ccc(C)cc1
> 100 µM (inactive)

Note GI50 for the compound shown: COc1cc(CC2c3cc(OC)c(OC)cc3CCN2C)ccc1O (centres undefined)
> 100 µM (inactive)

Note GI50 for the compound shown: CC1(C)O[C@H]2OC(CO[Si](C)(C)C(C)(C)C)C(N=[N+]=[N-])[C@H]2O1 (some centres undefined)
20 µM (inactive)
